Reference source: paper PMC6949113

assay_details: Monkey PK study, plasma
Format: in vivo, cynomolgus monkey
conditions: male, cynomolgus, cynomolgus monkey; monkey plasma, single oral AT-527 100 mg/kg; read-out: AUC0-last
parameter: AUC(0-t) (µM·h)

{"smiles_text": "C[C@@]1(F)[C@H](O)[C@@H](CO)O[C@H]1n1cnc2c(=O)[nH]c(N)nc21", "numeric_value": 10.1}

---

assay_details: Monkey PK study, plasma
Format: in vivo, cynomolgus monkey
conditions: male, cynomolgus, cynomolgus monkey, in vivo, po, 100 mg/kg

{"smiles_text": "CNc1nc(N)nc2c1ncn2[C@@H]1O[C@H](CO)[C@@H](O)[C@@]1(C)F", "Tmax": "15.3 h"}
